target-or-test-system: SMARCA2-HiBiT HeLa cells (protein which is expressed from the SMARCA2 gene) (Homo sapiens)
Construct: protein which is expressed from the SMARCA2 and SMARCA4 genes; host or cells: HeLa (SMARCA2-HiBiT engineered line)
assay-notes: SMARCA2 degradation assay (HiBiT-fusion HeLa cell line, 24 h, luminescence)
Type: cell-based
readout-kind: DC50

## Task For `COC/C=C/c1nccc(N2CCN(c3cc(-c4ccccc4O)nnc3N)CC[C@H]2C)n1` , what is its reported DC50?
## Result 50 to 500 nM

## Task Given the entry `C[C@@H]1CCN(c2cc(-c3ccccc3O)nnc2N)CCN1c1nc(C#CCN2C(=O)CC[C@@H]2C)ncc1F` , report its measured DC50.
## Result 50 to 500 nM

## Task Could you tell me which DC50 is on file for `Nc1nnc(-c2ccccc2O)cc1N1CCCN(c2ccnc(C#CCOc3ncco3)n2)CC1` ?
## Result < 50 nM

## Task Quick check: DC50 of `CN(C)CC#Cc1nccc(N2C3CCC2CN(c2cnnc(-c4ccccc4O)c2)C3)n1` ?
## Result 50 to 500 nM

## Task Can you share its DC50? I mean this compound: `Nc1nnc(-c2ccccc2O)cc1N1CCC2(CCN(c3ccnc(C#CCn4ccnc4)n3)CC2)C1`
## Result 50 to 500 nM

## Task Returns the measured DC50 for the input compound. Input: `C[C@@H]1CCN(c2cc(-c3ccccc3O)nnc2N)CCN1c1ccnc(C#CCn2ccnc2)c1`
## Result 50 to 500 nM

## Task Any idea what DC50 was measured for `C[C@@H]1CCN(c2cc(-c3ccccc3O)nnc2N)CCN1c1ccnc(C#CCN2CC[C@@H](F)C2)n1` ?
## Result < 50 nM

## Task Which DC50 is listed for `C[C@@H]1CCN(c2cc(-c3ccccc3O)nnc2N)CCN1c1cc(C#CCN(C)C)ncc1F` ?
## Result 50 to 500 nM

## Task What value of measured DC50 is listed for `CN(C)CC#Cc1nccc(N2CC(n3cc(-c4cc(-c5ccccc5O)nnc4N)cn3)C2)n1` ?
## Result < 50 nM

## Task Need DC50, item `Nc1nnc(-c2ccccc2O)cc1N1CC2CCC(C1)N2c1ccnc(C#CCNC(=O)c2cc3ncccn3n2)n1`
## Result > 5000 nM

## Task State the recorded DC50 for this entry: `Nc1nnc(-c2ccccc2O)cc1N1CCCN(c2ccnc(C#CCN3CCOCC3)n2)CC1`
## Result 50 to 500 nM

## Task What DC50 value was documented for this compound, `C[C@@H]1CCN(c2cc(-c3ccccc3O)nnc2N)CCN1c1ccnc(C#CCn2cncn2)c1C#N` ?
## Result 500 to 5000 nM

## Task Quick check: DC50 of `C[C@@H]1CCN(c2cc(-c3ccccc3O)nnc2N)CCN1c1ccnc(C=CCN(C)CC(F)F)n1` ?
## Result 50 to 500 nM

## Task Give the measured DC50 of `CC(C)(C)OC(=O)N1CCC[C@H]1C#Cc1nccc(N2CCCN(c3cc(-c4ccccc4O)nnc3N)CC2)n1` .
## Result 50 to 500 nM

## Task What does the data say about its DC50? Entry: `C[C@H]1CCN(c2cc(-c3ccccc3O)nnc2N)CCN1c1ccnc(C#CCN(C)CC(F)(F)F)n1`
## Result 50 to 500 nM

###

target-or-test-system: SMARCA2-HiBiT HeLa cells (protein which is expressed from the SMARCA2 gene) (Homo sapiens, UniProt P51531)
Construct: protein which is expressed from the SMARCA2 and SMARCA4 genes; host or cells: HeLa (SMARCA2-HiBiT engineered line)
Sequence (P51531 whole entry): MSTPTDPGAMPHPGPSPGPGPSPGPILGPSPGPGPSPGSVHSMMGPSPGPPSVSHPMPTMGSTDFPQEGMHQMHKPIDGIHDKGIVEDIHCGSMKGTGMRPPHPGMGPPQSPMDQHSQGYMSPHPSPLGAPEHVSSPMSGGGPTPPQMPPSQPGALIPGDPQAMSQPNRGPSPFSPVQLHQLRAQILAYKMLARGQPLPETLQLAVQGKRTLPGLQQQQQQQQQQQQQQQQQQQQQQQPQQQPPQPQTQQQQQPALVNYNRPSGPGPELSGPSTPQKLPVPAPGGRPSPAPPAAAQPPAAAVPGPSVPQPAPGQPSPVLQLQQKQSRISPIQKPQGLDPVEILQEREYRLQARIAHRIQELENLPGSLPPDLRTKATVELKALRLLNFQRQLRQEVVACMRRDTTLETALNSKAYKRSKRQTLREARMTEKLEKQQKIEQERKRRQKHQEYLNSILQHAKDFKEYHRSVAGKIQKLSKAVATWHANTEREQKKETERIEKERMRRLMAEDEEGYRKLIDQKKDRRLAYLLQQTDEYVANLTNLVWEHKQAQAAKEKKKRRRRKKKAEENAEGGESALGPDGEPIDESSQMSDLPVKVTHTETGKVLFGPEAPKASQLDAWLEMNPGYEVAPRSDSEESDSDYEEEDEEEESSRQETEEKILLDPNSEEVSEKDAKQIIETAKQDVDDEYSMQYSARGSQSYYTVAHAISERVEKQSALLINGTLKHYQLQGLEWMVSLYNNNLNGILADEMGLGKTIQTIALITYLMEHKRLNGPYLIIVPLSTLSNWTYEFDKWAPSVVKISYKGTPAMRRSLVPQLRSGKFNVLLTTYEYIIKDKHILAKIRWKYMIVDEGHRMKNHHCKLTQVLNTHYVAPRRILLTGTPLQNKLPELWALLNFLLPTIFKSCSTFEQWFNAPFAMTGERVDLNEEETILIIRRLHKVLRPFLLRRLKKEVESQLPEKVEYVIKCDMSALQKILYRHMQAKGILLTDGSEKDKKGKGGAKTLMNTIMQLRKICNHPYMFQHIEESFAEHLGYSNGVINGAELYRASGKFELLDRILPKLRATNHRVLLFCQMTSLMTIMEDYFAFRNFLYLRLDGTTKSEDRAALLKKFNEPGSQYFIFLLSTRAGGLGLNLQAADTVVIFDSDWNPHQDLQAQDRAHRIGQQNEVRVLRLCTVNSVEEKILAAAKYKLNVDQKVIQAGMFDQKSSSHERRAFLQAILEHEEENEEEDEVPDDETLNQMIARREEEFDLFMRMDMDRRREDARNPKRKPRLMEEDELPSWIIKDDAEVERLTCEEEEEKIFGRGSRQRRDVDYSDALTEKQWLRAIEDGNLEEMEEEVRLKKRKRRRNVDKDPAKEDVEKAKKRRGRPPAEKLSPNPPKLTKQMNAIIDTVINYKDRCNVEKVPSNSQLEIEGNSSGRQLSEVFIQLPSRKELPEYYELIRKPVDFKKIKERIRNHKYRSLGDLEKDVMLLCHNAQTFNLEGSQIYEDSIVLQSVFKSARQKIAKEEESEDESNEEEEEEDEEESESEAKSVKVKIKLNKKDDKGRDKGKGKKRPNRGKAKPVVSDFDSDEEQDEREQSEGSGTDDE
assay-notes: SMARCA2 degradation assay (HiBiT-fusion HeLa cell line, 24 h, luminescence)
Type: cell-based
test-conditions: @ 1 μM
readout-kind: SMARCA2 % Degradation @ 1 μM

Solved cases below.
| compound | SMARCA2 % Degradation @ 1 μM |
| --- | --- |
| CC1CCC(C)N1CC#Cc1nccc(N2CCN(c3cc(-c4ccccc4O)nnc3N)CC[C@H]2C)n1 (stereo partly drawn) | ++ (++=30-70%) |
| Cc1ncsc1C(=O)NCC#Cc1nccc(N2CCN(c3cc(-c4ccccc4O)nnc3N)CC2)n1 | ++ (++=30-70%) |
| Cc1c(C(=O)NCC#Cc2nc(N(C)C)cc(N3CCCN(c4cc(-c5ccccc5O)nnc4N)CC3)n2)nn(C)c1C | ++ (++=30-70%) |
| CNc1cc(N2CCCN(c3cc(-c4ccccc4O)nnc3N)CC2)nc(C#CCNC(=O)c2nn(C)c(C)c2C)n1 | ?? |

## Task Give the measured SMARCA2 % Degradation @ 1 μM of `Cc1cc(C(=O)NCC#Cc2nccc(N3CCN(c4cc(-c5ccccc5O)nnc4N)CC3)n2)no1` .
## Result ++ (++=30-70%)

## Task Can you look up the measured SMARCA2 % Degradation @ 1 μM of `CN(C)CC#Cc1nccc(N2CC(n3cc(-c4cc(-c5ccccc5O)nnc4N)cn3)C2)n1` for me?
## Result ++ (++=30-70%)

## Task Reported SMARCA2 % Degradation @ 1 μM, compound `C[C@@H]1CCN(c2cc(-c3ccccc3O)nnc2N)CCN1c1ccnc(C#CCN2CCCCC2)n1` : ____
## Result ++ (++=30-70%)

## Task // lookup SMARCA2 % Degradation @ 1 μM for `Nc1nnc(-c2ccccc2O)cc1N1CCCN(c2ccnc(C#CCN3CCCOCC3)n2)CC1`
## Result +++ (+++=>70%)

## Task Tell me the measured SMARCA2 % Degradation @ 1 μM of `Nc1nnc(-c2ccccc2O)cc1N1C[C@H]2C[C@@H]1CN2c1ccnc(C#CCNC(=O)c2cc3ncccn3n2)n1` , please.
## Result +++ (+++=>70%)

###

target-or-test-system: SMARCA4-HiBiT HeLa cells (protein which is expressed from the SMARCA4 gene) (Homo sapiens)
Construct: protein which is expressed from the SMARCA2 and SMARCA4 genes; host or cells: HeLa (SMARCA4-HiBiT engineered line)
Sequence (P51532 whole entry): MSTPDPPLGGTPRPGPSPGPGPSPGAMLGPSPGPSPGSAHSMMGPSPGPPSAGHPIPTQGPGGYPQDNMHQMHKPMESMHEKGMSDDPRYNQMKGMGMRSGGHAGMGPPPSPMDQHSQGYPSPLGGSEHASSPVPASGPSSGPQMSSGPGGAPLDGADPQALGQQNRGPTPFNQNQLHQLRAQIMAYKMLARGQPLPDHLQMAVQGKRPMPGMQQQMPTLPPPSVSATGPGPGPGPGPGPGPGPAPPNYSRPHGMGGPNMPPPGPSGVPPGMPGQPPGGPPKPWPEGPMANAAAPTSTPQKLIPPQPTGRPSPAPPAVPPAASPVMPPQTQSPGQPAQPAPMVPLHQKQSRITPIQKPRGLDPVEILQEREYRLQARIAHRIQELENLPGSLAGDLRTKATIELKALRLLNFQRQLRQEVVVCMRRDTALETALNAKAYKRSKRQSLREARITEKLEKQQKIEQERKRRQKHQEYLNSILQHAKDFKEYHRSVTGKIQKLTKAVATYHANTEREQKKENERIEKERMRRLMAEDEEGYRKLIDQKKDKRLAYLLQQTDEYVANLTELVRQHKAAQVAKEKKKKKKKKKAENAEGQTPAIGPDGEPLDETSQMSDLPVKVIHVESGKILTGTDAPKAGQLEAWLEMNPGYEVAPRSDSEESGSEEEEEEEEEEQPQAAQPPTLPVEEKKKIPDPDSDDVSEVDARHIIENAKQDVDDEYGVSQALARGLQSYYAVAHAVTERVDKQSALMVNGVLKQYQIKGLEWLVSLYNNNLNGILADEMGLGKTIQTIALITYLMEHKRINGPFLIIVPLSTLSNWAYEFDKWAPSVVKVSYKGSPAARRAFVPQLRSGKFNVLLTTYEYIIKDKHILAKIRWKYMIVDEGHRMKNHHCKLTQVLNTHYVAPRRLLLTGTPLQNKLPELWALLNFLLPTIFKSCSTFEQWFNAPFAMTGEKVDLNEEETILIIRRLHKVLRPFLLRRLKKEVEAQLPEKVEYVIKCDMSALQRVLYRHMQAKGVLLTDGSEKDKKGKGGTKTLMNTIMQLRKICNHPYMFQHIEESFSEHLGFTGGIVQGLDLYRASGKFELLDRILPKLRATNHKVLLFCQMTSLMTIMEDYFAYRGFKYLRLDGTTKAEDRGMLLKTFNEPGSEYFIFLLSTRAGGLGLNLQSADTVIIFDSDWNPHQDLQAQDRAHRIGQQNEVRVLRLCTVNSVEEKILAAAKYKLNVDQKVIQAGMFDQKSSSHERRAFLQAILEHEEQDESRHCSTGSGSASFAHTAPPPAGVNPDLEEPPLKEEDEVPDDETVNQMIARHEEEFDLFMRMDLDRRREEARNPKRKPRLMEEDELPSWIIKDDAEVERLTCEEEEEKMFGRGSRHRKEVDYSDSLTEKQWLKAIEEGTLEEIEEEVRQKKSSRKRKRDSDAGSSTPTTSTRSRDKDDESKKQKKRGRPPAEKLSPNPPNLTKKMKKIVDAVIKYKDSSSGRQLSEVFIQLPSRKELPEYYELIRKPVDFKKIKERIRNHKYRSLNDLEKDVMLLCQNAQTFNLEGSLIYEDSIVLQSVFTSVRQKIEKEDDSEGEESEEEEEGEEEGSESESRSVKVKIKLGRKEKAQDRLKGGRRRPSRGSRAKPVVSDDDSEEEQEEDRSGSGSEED
assay-notes: SMARCA4 degradation assay (HiBiT-fusion HeLa cell line, 24 h, luminescence)
Assay type: cell-based
Can you tell me DC50 for the items I'm about to list?

## Task # DC50 lookup, item `Nc1nnc(-c2ccccc2O)cc1N1CCN(c2ccnc(C#CCNC(=O)c3coc4ccccc34)n2)CC1`
## Result 50 to 500 nM

## Task Give the measured DC50 of `Nc1nnc(-c2ccccc2O)cc1N1CCN(c2ccnc(C#CCNC(=O)c3cn4ccncc4n3)n2)CC1` .
## Result 50 to 500 nM

## Task // DC50 lookup, key: `C[C@@H]1CCN(c2cc(-c3ccccc3O)nnc2N)CCN1c1ccnc(C#CCN2CCC[C@@H]2C)n1`
## Result < 50 nM

## Task Which DC50 is reported for this compound? `Cc1cc(C(=O)NCC#Cc2nccc(N3CCN(c4cc(-c5ccccc5O)nnc4N)CC3)n2)nn1C`
## Result 50 to 500 nM

## Task What value of DC50 has been reported for the following compound? `Nc1nnc(-c2ccccc2O)cc1N1CCN(c2ccnc(C#CCNC(=O)c3cc4n(n3)CCOC4)n2)CC1`
## Result 50 to 500 nM

## Task Requested read-out: DC50. Entry: `CC(C)(C)OC(=O)NCC#Cc1nccc(N2CC3=C(C2)CN(c2cc(-c4ccccc4O)nnc2N)C3)n1`
## Result < 50 nM

## Task Quick one: DC50 for `C[C@@H]1CCN(c2cc(-c3ccccc3O)nnc2N)CCN1c1ccnc(/C=C/CN(C)C)n1` ?
## Result 50 to 500 nM

## Task What value of DC50 has been recorded for this entry: `C[C@@H]1CCN(c2cc(-c3ccccc3O)nnc2N)CCN1c1ccnc(C#C[C@@H](C)O)n1`
## Result 500 to 5000 nM

## Task Fill blank: measured DC50 of the compound `Cc1nn2ccn(CC#Cc3nccc(N4CC5CCC(C4)N5c4cc(-c5ccccc5O)nnc4N)n3)c(=O)c2c1C` is ____.
## Result 50 to 500 nM

## Task If you can, please state the reported DC50 value of `C[C@@H]1CCN(c2cc(-c3ccccc3O)nnc2N)CCN1c1ccc(C(F)(F)F)c(C#CCN2CCCC2)n1` .
## Result 500 to 5000 nM

## Task Give the measured DC50 of `CN1C(=O)NC2(CCN(CC#Cc3nccc(N4CCCN(c5cc(-c6ccccc6O)nnc5N)CC4)n3)CC2)C1=O` .
## Result 500 to 5000 nM

## Task # input compound: `C[C@@H]1CCN(c2cc(-c3ccccc3O)nnc2N)CCN1c1nc(C#CCN2CCCC2=O)ncc1F` ; wanted: its DC50
## Result 50 to 500 nM

## Task What measured DC50 goes with `Nc1nnc(-c2ccccc2O)cc1N1CC2CC(C1)N2c1ccnc(C#CCn2cncn2)n1` ?
## Result 500 to 5000 nM

## Task Sample `CNCC#Cc1nccc(N2CCN(c3cc(-c4ccccc4O)nnc3N)[C@@H](C)C2)n1` — what was its DC50?
## Result < 50 nM

## Task Looking for the measured DC50 of `C[C@@H]1CCN(c2cc(-c3ccccc3O)nnc2N)CCN1c1cc(C#CCn2ccnc2)ncc1F` , can you help?
## Result 50 to 500 nM

## Task Could you tell me which DC50 is on file for CC1CN(c2cc(-c3ccccc3O)nnc2N)CCCN1c1ccnc(C#CCNC(=O)c2cc3ncccn3n2)n1 (centres unmarked) ?
## Result 50 to 500 nM

## Task Using the record for `Cc1nn2ccn(CC#Cc3nccc(N4CCN(c5cc(-c6ccccc6O)nnc5N)CC[C@H]4C)n3)c(=O)c2c1C` , report its DC50.
## Result 50 to 500 nM

## Task Entry CN(C)CC#Cc1nccc(N2C3CCC2CN(c2cc(-c4ccccc4O)nnc2N)CC3)n1 (centres unmarked) : reported DC50 = ?
## Result 50 to 500 nM

## Task // returns reported DC50 for input `C[C@@H]1CCCN1CC#Cc1nccc(N2CCN(c3cc(-c4ccccc4O)nnc3N)CC[C@H]2C)n1`
## Result < 50 nM

## Task Which DC50 is reported for this compound? `CC1(NCC#Cc2nccc(N3CCCN(c4cc(-c5ccccc5O)nnc4N)CC3)n2)COC1`
## Result 50 to 500 nM

## Task // returns reported DC50 for input `C[C@@H]1CCN(c2cc(-c3ccccc3O)nnc2N)CCN1c1ccnc(C#CCN(C)C)n1`
## Result < 50 nM

## Task Tell me the measured DC50 of `Cc1c(C(=O)NCC#Cc2nc(N(C)C)cc(N3CCCN(c4cc(-c5ccccc5O)nnc4N)CC3)n2)nn(C)c1C` , please.
## Result 500 to 5000 nM

## Task Name the recorded DC50 for `Nc1nnc(-c2ccccc2O)cc1N1CCCN(c2ccnc(C#CCN3CC4CCC(C3)O4)n2)CC1` .
## Result 500 to 5000 nM

## Task Given the entry CC1(F)CCN(CC#Cc2nccc(N3C4CCC3CN(c3cc(-c5ccccc5O)nnc3N)C4)n2)C1 (centres unmarked) , report its measured DC50.
## Result < 50 nM

## Task Dear colleague, I am looking for the recorded DC50 of the following compound: `CN(C)CC#Cc1ncc(F)c(N2C3CCC2CN(c2cc(-c4ccccc4O)nnc2N)C3)n1`
## Result < 50 nM

## Task What value of DC50 has been reported for the following compound? `Cn1ccc(C(=O)NCC#Cc2nccc(N3CCN(c4cc(-c5ccccc5O)nnc4N)CC3)n2)n1`
## Result < 50 nM

## Task Looking for the measured DC50 of `C[C@@H]1CCN(c2cc(-c3ccccc3O)nnc2N)CCN1c1ccnc(C#C[C@@H](C)O)c1` , can you help?
## Result 50 to 500 nM

## Task # DC50 lookup, item `COC/C=C/c1nccc(N2CCN(c3cc(-c4ccccc4O)nnc3N)CC[C@H]2C)n1`
## Result 500 to 5000 nM

## Task Any idea what DC50 was measured for `C[C@@H]1CCN(c2cc(-c3ccccc3O)nnc2N)CCN1c1ccc(C#N)c(C#CCn2ccnc2)n1` ?
## Result 50 to 500 nM
